Assay: xn = mol fraction of the nth substance listed, in the solute-free solvent
Details: 298.15 K; x2 = 0.1
Threshold rule: solubility (g/100 g solution) greater than or equal to 3 is T; below that, F.

Task item: Given the entry O=c1ccc2ccccc2o1 + CO + O , answer whether its solubility (g/100 g solution) meets or surpasses 3.
Reply: F

Task item: Given the entry CCCCN1CCCCC1C(=O)Nc1c(C)cccc1C.Cl.O (stereo not given) + CO + O , answer whether its solubility (g/100 g solution) meets or surpasses 3.
Reply: T

Task item: Given the entry CCCCN1CCCCC1C(=O)Nc1c(C)cccc1C.Cl.O (stereo not given) + CCO + O , answer whether its solubility (g/100 g solution) meets or surpasses 3.
Reply: T

Task item: Given the entry O=c1ccc2ccccc2o1 + CC(C)=O + O , answer whether its solubility (g/100 g solution) meets or surpasses 3.
Reply: F

Task item: Given the entry CC1(C)SC2C(NC(=O)C(NC(=O)N3CCNC3=O)c3ccccc3)C(=O)N2C1C(=O)O (stereo not given) + CO + CC(C)O , answer whether its solubility (g/100 g solution) meets or surpasses 3.
Reply: F
